target: DLG1_2, Q12959; assay: holdup assay; set-up: key: below the threshold = too weak to quantify, mostly under pKd 3.1 to 4; conditions: plain residues with an end cap or a label only (N-terminal biotin on a linker: ado-ado)
Sequence (Q12959 314-412): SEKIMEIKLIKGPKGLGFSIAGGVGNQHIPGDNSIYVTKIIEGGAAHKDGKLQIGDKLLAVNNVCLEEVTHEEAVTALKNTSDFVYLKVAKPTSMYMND
Outcome label depends on pKd relative to 4: at/above gives true (1), below gives false (0).

> print(dat)
                           binder      class
 1    TLPRKRMSSI [GPRC6A, Q5T6X5]  false (0)
 2     PPYRHRNTVV [ERBB4, Q15303]   true (1)
 3    PDGQCTVTEV [RNF146, Q9NTX7]   true (1)
 4     DDPSTAETVL [ABCA7, Q8IZY2]  false (0)
 5   QGPVETESVV [SLC45A4, Q5BKX6]   true (1)
 6    DDEDRLVIEI [ZNF831, Q5JPB2]  false (0)
 7      HLRARKSEWV [GJD4, Q96KN9]   true (1)
 8     QGLAERISVL [PRKD2, Q9BZL6]  false (0)
 9   DDENIRTSDV [PLEKHA2, Q9HB19]   true (1)
10    HSGYRLNDYV [CLDN14, O95500]  false (0)
11  ETQVTAETVI [TMEM225B, P0DP42]   true (1)

Where these numbers come from: paper PMC9482650
